// provenance: patent US20050282818A1

Recorded IC50, one value per entry.
# target under test: TRAF6/Uev1A/Ubc13 (Homo sapiens)
# Sequence (Q9Y4K3 1-522): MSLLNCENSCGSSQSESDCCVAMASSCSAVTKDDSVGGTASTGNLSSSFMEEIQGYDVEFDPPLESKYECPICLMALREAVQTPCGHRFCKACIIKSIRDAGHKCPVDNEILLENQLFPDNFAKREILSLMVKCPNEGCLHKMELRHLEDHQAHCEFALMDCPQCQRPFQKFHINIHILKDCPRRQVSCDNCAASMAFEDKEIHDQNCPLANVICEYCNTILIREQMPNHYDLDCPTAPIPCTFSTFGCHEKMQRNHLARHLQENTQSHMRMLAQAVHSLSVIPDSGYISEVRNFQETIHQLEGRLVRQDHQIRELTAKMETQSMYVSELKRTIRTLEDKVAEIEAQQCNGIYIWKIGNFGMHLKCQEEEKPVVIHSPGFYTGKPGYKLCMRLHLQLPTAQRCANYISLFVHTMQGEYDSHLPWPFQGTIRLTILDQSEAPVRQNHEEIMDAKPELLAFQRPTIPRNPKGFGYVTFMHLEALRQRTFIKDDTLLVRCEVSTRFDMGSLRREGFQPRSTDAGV
# assay protocol: TRAF6/Uev1A/Ubc13 plate-based ubiquitin ligase assay

| compound | IC50 |
| --- | --- |
| O=S(=O)(Nc1ccncn1)c1ccc(Cl)c2nonc12 [compound 374] | ≥ 20 µM |
| COc1cccc(NS(=O)(=O)c2ccc(Cl)c3nonc23)c1OC [compound 410] | ≥ 20 µM |
| CC1CC(C)CN(c2ccc([N+](=O)[O-])c3nonc23)C1 (centres unmarked) [compound 144] | 1 to 20 µM |
| CC(=O)N1CCN(c2ccc([N+](=O)[O-])c3nonc23)CC1 [compound 88] | ≥ 20 µM |
| COc1ccccc1C(=O)Nc1ccc(Nc2cccc(F)c2F)c2nonc12 [compound 403] | ≥ 20 µM |
